- Tested on: Influenza B/Malaysia/2506/04 (Victoria lineage) in MDCK II cells
- Assay type: cell-based, influenza B virus
- Condition notes: B/Mal, 100 µM peptides, 48 h, replicate 2
No end group written: not given here.
Endpoint name: Normalized to Aprotinin =1 (protection)
A bare number is all that is needed in reply.

Past entries and their recorded results:
[[record]]
substance = "IDPKVLESLL-NH2 (C-terminus assumed) [U-MYRTX-Mrug2b]"
recorded_value = 0.02764

[[record]]
substance = "INPKLLESL-NH2 (C-terminus assumed) [U-MYRTX-Mrug5b]"
recorded_value = 0.06268

[[record]]
substance = "IDSKAIKSLQ-NH2 (C-terminus assumed) [U-MYRTX-Mrub4b/Mrug3a]"
recorded_value = 0.08884


Challenge: Provide Normalized to Aprotinin =1 (protection) value for the following substance: IDVYFILHLP-NH2 (C-terminus assumed) [U-MYRTX-Mrug4b]
Response given: 0.02626

Challenge: Provide Normalized to Aprotinin =1 (protection) value for the following substance: IDPKVLESLA-NH2 (C-terminus assumed) [U-MYRTX-Mrug2a]
Response given: 0.0417

Challenge: Provide Normalized to Aprotinin =1 (protection) value for the following substance: IDSDALKSLQ-NH2 (C-terminus assumed) [U-MYRTX-Mrub4a/Mrug7a]
Response given: 0.1088

Challenge: Provide Normalized to Aprotinin =1 (protection) value for the following substance: IDRSEKTERE-NH2 (C-terminus assumed) [U-MYRTX-Mrub3a]
Response given: 0.1383

Challenge: Provide Normalized to Aprotinin =1 (protection) value for the following substance: KDSDSLKSFQ-NH2 (C-terminus assumed) [U-MYRTX-Mrug6a]
Response given: 0.07745

Challenge: Provide Normalized to Aprotinin =1 (protection) value for the following substance: IDPKLLESLA-NH2 (C-terminus assumed) [U-MYRTX-Mrub2a]
Response given: 0.1729

---

- Test system: Influenza B/Malaysia/2506/04 (Victoria lineage) in MDCK II cells
- Assay type: cell-based, influenza B virus
- Condition notes: B/Mal, 100 µM peptides, 48 h, replicate 3
No end group written: not given here.
Endpoint name: Normalized to Aprotinin =1 (protection)
A bare number is all that is needed in reply.

[[record]]
substance = "IDSKAIKSLQ-NH2 (C-terminus assumed) [U-MYRTX-Mrub4b/Mrug3a]"
recorded_value = 0.1216

[[record]]
substance = "IDPKVLESLA-NH2 (C-terminus assumed) [U-MYRTX-Mrug2a]"
recorded_value = 0.07904

[[record]]
substance = "INPKLLESL-NH2 (C-terminus assumed) [U-MYRTX-Mrug5b]"
recorded_value = 0.0833

[[record]]
substance = "IDVYFILHLP-NH2 (C-terminus assumed) [U-MYRTX-Mrug4b]"
recorded_value = 0.09882

[[record]]
substance = "IDRSEKTERE-NH2 (C-terminus assumed) [U-MYRTX-Mrub3a]"
recorded_value = 0.1034

[[record]]
substance = "KDSDSLKSFQ-NH2 (C-terminus assumed) [U-MYRTX-Mrug6a]"
recorded_value = 0.114

[[record]]
substance = "IDPKVLESLL-NH2 (C-terminus assumed) [U-MYRTX-Mrug2b]"
recorded_value = 0.1043

[[record]]
substance = "IDSDALKSLQ-NH2 (C-terminus assumed) [U-MYRTX-Mrub4a/Mrug7a]"
recorded_value = 0.1041


Challenge: Provide Normalized to Aprotinin =1 (protection) value for the following substance: IDPKLLESLA-NH2 (C-terminus assumed) [U-MYRTX-Mrub2a]
Response given: 0.1453

---

- System: Influenza B/Massachusetts/71 (Yamagata lineage) in MDCK II cells
- Assay type: cell-based, influenza B virus
- Condition notes: B/Mass, 100 µM peptides, 48 h, replicate 3
No end group written: not given here.
Entries and their measured Normalized to Aprotinin =1 (protection) follow.
A bare number is all that is needed in reply.

[[record]]
substance = "IDPKVLESLL-NH2 (C-terminus assumed) [U-MYRTX-Mrug2b]"
recorded_value = 0.02698


Challenge: Provide Normalized to Aprotinin =1 (protection) value for the following substance: IDVYFILHLP-NH2 (C-terminus assumed) [U-MYRTX-Mrug4b]
Response given: 0.01675

Challenge: Provide Normalized to Aprotinin =1 (protection) value for the following substance: IDPKVLESLA-NH2 (C-terminus assumed) [U-MYRTX-Mrug2a]
Response given: 0.02908

Challenge: Provide Normalized to Aprotinin =1 (protection) value for the following substance: IDSDALKSLQ-NH2 (C-terminus assumed) [U-MYRTX-Mrub4a/Mrug7a]
Response given: 0.01553

Challenge: Provide Normalized to Aprotinin =1 (protection) value for the following substance: IDRSEKTERE-NH2 (C-terminus assumed) [U-MYRTX-Mrub3a]
Response given: 0.03331

Challenge: Provide Normalized to Aprotinin =1 (protection) value for the following substance: IDPKLLESLA-NH2 (C-terminus assumed) [U-MYRTX-Mrub2a]
Response given: 0.1749

Challenge: Provide Normalized to Aprotinin =1 (protection) value for the following substance: KDSDSLKSFQ-NH2 (C-terminus assumed) [U-MYRTX-Mrug6a]
Response given: 0.01821

Challenge: Provide Normalized to Aprotinin =1 (protection) value for the following substance: INPKLLESL-NH2 (C-terminus assumed) [U-MYRTX-Mrug5b]
Response given: 0.0246

Challenge: Provide Normalized to Aprotinin =1 (protection) value for the following substance: IDSKAIKSLQ-NH2 (C-terminus assumed) [U-MYRTX-Mrub4b/Mrug3a]
Response given: 0.02366
